Provide the recorded pIC50 for the entries that follow.
Measurement Target: GABA-A receptor; anion channel
Procedure Details: Inhibition of [35S]TBPS binding to GABA-A receptor in rat cerebral cortex.
Format: tissue-based
The meaning of pIC50 here: minus log10 of the concentration in molar units.

Look up pIC50 with GABA-A receptor; anion channel for this compound: `CC(C)c1cccc(C(C)C)c1OC(=O)c1ccccc1`
4.82

Look up pIC50 with GABA-A receptor; anion channel for this compound: `CC(C)c1cc(Cl)cc(C(C)C)c1O`
5.84

Look up pIC50 with GABA-A receptor; anion channel for this compound: `CC(=O)Oc1c(C(C)C)cccc1C(C)C`
5.07

Look up pIC50 with GABA-A receptor; anion channel for this compound: `CC(C)c1cc(C=O)cc(C(C)C)c1O`
5.24

Look up pIC50 with GABA-A receptor; anion channel for this compound: `CC(C)c1cc(N)cc(C(C)C)c1O`
4.63

Look up pIC50 with GABA-A receptor; anion channel for this compound: `CC(C)c1cc(Br)cc(C(C)C)c1O`
5.97

Look up pIC50 with GABA-A receptor; anion channel for this compound: `COS(=O)(=O)c1cc(C(C)C)c(O)c(C(C)C)c1`
5.03

Look up pIC50 with GABA-A receptor; anion channel for this compound: `CC(C)c1cc(N(C)C)cc(C(C)C)c1O`
5.24

Look up pIC50 with GABA-A receptor; anion channel for this compound: `CC(C)c1cccc(C(C)C)c1OC(=O)CN1CCCC1`
5.19

Look up pIC50 with GABA-A receptor; anion channel for this compound: `COc1c(C(C)C)cccc1C(C)C`
4.43

Look up pIC50 with GABA-A receptor; anion channel for this compound: `CC(C)c1cc(NC(=O)C(F)(F)F)cc(C(C)C)c1O`
4.85

Look up pIC50 with GABA-A receptor; anion channel for this compound: `COC(CNCC(=O)Oc1c(C(C)C)cccc1C(C)C)OC`
4.81

Look up pIC50 with GABA-A receptor; anion channel for this compound: `CC(C)c1cc(NS(C)(=O)=O)cc(C(C)C)c1O`
3.88
